- TEST: terephthalic acid (TPA) released, HPLC; higher = more TPA released; extreme values may be limits of the assay
- SETTINGS: PET substrate: aFilm; 60 °C; pH 8.5; 24 h
Classify as follows. Reported terephthalic acid greater than or equal to 0.2 mM: satisfied. Reported terephthalic acid below: not satisfied.

Input line: Has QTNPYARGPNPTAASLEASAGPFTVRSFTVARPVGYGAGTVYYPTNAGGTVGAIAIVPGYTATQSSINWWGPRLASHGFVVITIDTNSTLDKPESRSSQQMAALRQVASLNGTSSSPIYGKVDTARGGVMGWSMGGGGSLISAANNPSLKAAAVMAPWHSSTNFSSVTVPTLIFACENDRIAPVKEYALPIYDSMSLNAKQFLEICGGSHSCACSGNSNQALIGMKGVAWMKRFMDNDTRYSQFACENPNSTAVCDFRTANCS [HotPETase] a recorded terephthalic acid greater than or equal to 0.2 mM?
Output line: not satisfied

Input line: Has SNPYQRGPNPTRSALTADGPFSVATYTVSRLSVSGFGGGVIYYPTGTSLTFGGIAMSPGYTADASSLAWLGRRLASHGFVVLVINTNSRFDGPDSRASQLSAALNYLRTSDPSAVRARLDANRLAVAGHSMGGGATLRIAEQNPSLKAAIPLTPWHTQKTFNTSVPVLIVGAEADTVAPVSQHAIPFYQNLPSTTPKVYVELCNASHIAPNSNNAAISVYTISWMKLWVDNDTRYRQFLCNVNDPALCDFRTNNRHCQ [LCC-ICCG DAQI] a recorded terephthalic acid greater than or equal to 0.2 mM?
Output line: satisfied

Input line: Has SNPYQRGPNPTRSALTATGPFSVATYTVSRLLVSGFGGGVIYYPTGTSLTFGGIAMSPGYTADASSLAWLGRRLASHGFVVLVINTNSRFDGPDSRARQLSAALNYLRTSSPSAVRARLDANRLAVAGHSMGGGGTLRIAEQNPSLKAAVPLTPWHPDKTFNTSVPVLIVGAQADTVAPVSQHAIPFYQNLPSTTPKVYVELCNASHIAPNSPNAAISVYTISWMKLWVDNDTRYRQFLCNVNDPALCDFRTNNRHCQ [LCC-ICCG I6M] a recorded terephthalic acid greater than or equal to 0.2 mM?
Output line: satisfied

Input line: Has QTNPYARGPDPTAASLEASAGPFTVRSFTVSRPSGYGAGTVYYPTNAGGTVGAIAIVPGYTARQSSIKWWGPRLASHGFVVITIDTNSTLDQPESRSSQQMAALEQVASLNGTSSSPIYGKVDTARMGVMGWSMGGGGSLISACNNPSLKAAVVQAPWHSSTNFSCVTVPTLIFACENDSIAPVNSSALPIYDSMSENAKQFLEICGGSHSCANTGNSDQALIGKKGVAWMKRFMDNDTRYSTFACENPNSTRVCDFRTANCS [Z1-PETase] a recorded terephthalic acid greater than or equal to 0.2 mM?
Output line: not satisfied

Input line: Has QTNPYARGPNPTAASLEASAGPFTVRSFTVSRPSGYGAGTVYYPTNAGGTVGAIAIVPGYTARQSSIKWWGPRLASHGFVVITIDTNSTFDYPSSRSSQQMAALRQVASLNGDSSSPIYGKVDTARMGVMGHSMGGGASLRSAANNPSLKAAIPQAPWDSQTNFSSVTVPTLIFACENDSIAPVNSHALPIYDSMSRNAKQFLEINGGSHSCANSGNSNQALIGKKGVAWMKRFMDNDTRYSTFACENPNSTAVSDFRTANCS [DuraPETase] a recorded terephthalic acid greater than or equal to 0.2 mM?
Output line: not satisfied

Input line: Has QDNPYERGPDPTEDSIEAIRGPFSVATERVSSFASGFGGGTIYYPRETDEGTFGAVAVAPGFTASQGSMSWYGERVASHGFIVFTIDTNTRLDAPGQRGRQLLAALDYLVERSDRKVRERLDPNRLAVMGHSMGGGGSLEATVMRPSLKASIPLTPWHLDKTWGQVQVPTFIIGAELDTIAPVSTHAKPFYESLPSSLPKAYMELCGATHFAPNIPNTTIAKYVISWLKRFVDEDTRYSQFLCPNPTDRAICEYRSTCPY [Cut190*SS] a recorded terephthalic acid greater than or equal to 0.2 mM?
Output line: not satisfied
